Tested On: HIV-1 pNL4-3 integrase (Human immunodeficiency virus type 1 group M subtype B (isolate NY5) (HIV-1), UniProt P12497)
Assay Overview: Determination of enzyme (HIV integrase) inhibitory activity
Condition Context: calculated from inhibition rate (fluorescence)
Quick rule for you: IC50 under 0.008 µM gets TRUE, anything else gets FALSE.

Molecule | Group Label
COC[C@@H]1Cn2cc(-c3nnc(Cc4ccc(F)cc4)s3)c(=O)c(O)c2C(=O)N1C(C)C1CC1 (stereo partly drawn) [Example 206] | TRUE
CC[C@@H](C)N1C[C@@H](COC)n2cc(-c3nnc(Cc4ccc(F)cc4)s3)c(=O)c(O)c2C1=O | FALSE
CC(=O)N(C)CC1(C)CN(C(C)C)C(=O)c2c(O)c(=O)c(-c3ncc(Cc4ccc(F)cc4F)s3)cn21 (stereo not drawn) | FALSE
CC(C)N1CC(CC(=O)N(C)C)n2cc(-c3ncc(Cc4ccc(F)cc4F)s3)c(=O)c(O)c2C1=O (stereo not drawn) | FALSE
COC[C@H]1Cn2cc(-c3nnc(Cc4ccc(F)cc4)s3)c(=O)c(O)c2C(=O)N1C(C)C | FALSE
CC(=O)N(C)C[C@@]1(C)CN(C(C)C)C(=O)c2c(O)c(=O)c(-c3nnc(Cc4ccc(F)cc4F)s3)cn21 | FALSE
CC(C)N1CC(C)(CO)n2cc(-c3ncc(Cc4ccc(F)cc4F)s3)c(=O)c(O)c2C1=O (stereo not drawn) | FALSE
CNC(=O)C1CN(C(C)C)C(=O)c2c(O)c(=O)c(-c3ncc(Cc4ccc(F)cc4F)s3)cn21 (stereo not drawn) | TRUE
CO[C@H](C)[C@@H]1CN(C(C)C)C(=O)c2c(O)c(=O)c(-c3nnc(Cc4ccc(F)cc4)s3)cn21 | TRUE
CCN1C(=O)c2c(O)c(=O)c(-c3nnc(Cc4ccc(F)cc4)s3)cn2C[C@H]1[C@H](C)OC | FALSE
CC(C)N1C[C@](C)(C(=O)N2CC(O)C2)n2cc(-c3nnc(Cc4ccc(F)cc4)s3)c(=O)c(O)c2C1=O | FALSE
COC[C@H]1CN(C(C)C)C(=O)c2c(O)c(=O)c(-c3nnc(Cc4ccc(F)c(F)c4)s3)cn21 | TRUE
C[C@@H](C1CC1)N1C[C@](C)(C(=O)N2CCC2)n2cc(-c3ncc(Cc4ccc(F)cc4)s3)c(=O)c(O)c2C1=O | FALSE
COCCOC[C@H]1CN(CC(C)(C)C)C(=O)c2c(O)c(=O)c(-c3nnc(Cc4ccc(F)cc4F)s3)cn21 | FALSE

* * *

Listing of entries alongside the reported IC50.
Tested On: HIV-1 pNL4-3 integrase (Human immunodeficiency virus type 1 group M subtype B (isolate NY5) (HIV-1))
Assay Overview: Determination of enzyme (HIV integrase) inhibitory activity
Condition Context: calculated from inhibition rate (fluorescence)
Assay Readout: IC50 (nM)

Compound | Assay Readout | Observed Result
CC(C)N1CC(CNS(C)(=O)=O)n2cc(-c3ncc(Cc4ccc(F)cc4F)s3)c(=O)c(O)c2C1=O (stereo not shown) | IC50 | 8.9
CC(C)N1CC(C)(C(=O)O)n2cc(-c3ncc(Cc4ccc(F)cc4)s3)c(=O)c(O)c2C1=O (stereo not shown) | IC50 | 19
CCN1C(=O)c2c(O)c(=O)c(-c3nnc(Cc4ccc(F)cc4)s3)cn2C[C@]1(C)COCCOC | IC50 | 14
CO[C@@H](C)[C@@H]1Cn2cc(-c3nnc(Cc4ccc(F)cc4)s3)c(=O)c(O)c2C(=O)N1C(C)C | IC50 | 9.1

Origin of values: patent US10065950B2
